target: ERK5 (Homo sapiens, UniProt Q13164); construct: screened for activity against several kinases in Jurkat cells; endogenous in cells; host or cells: Jurkat cell lysate; experiment: Probe-based (AX9989 acyl phosphate ATP probe) kinase profiling in Jurkat lysate: ERK5; assay type: binding; conditions: calculated from percent inhibition of AX9989 labeling and the screening concentration; Jurkat lysate
Sequence (Q13164 whole entry): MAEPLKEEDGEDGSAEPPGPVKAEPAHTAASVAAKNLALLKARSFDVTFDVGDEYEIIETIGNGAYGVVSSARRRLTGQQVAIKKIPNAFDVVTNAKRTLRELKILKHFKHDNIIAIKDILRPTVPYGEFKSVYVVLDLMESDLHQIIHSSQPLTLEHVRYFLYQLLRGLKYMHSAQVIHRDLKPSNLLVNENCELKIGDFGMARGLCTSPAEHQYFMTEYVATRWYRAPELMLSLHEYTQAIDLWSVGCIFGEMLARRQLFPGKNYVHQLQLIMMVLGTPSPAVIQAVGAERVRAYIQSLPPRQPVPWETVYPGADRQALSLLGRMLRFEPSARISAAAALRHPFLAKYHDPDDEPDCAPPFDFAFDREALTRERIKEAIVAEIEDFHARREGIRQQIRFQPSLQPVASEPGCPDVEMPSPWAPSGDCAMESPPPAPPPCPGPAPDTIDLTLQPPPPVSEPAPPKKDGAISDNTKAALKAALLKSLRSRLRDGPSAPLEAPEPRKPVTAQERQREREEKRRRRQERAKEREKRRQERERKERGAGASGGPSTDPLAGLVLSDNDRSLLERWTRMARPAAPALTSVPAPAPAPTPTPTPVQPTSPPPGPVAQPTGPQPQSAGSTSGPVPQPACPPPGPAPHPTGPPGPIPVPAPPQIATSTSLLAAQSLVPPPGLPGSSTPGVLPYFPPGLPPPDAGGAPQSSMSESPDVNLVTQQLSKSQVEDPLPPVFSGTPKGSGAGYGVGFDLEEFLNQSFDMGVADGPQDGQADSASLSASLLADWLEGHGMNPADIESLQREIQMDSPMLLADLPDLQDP
pIC50: −log10 of the molar value.
Quick reference: pIC50 of the listed items.

// below: answered compounds
CCOc1cc(C(=O)N(CC)CCN(CC)CC)ccc1Nc1cc2c(cn1)N(C)C(=O)c1ccccc1N2C	≥ 7.30
CCOc1cc(C(=O)N2CC[C@@H](N(C)C)C2)ccc1Nc1cc2c(cn1)N(C)C(=O)c1occc1N2C	≥ 7.30
CCOc1cc(C(=O)N2CCC[C@H](O)C2)ccc1Nc1cc2c(cn1)N(C)C(=O)c1ccccc1N2C	≥ 7.30
CCOc1cc(C(=O)N2CC[C@H](O)C2)ccc1Nc1cc2c(cn1)N(C)C(=O)c1occc1N2C	≥ 7.30
CCOc1cc(C(=O)N2CCC(OC)CC2)ccc1Nc1cc2c(cn1)N(C)C(=O)c1ccccc1N2C	7.00 to 7.30

// pIC50 value for CCOc1cc(C(=O)NCCN(C)C)ccc1Nc1cc2c(cn1)N(C)C(=O)c1ccccc1N2C : 6.30 to 7.00

// pIC50 value for CCOc1cc(C(=O)N2CC[C@@H](N3CCCCC3)C2)ccc1Nc1cc2c(cn1)N(C)C(=O)c1occc1N2C : ≥ 7.30

###

Quick reference: IC50 of the listed items.
target: ERK5 (Homo sapiens, UniProt Q13164); construct: screened for activity against several kinases in Jurkat cells; endogenous in cells; host or cells: Jurkat cell lysate; assay: Probe-based (AX9989 acyl phosphate ATP probe) kinase profiling in Jurkat lysate: ERK5; type: binding; settings: calculated from percent inhibition and screening concentration; Jurkat lysate, AX9989 probe

CCOc1cc(C(=O)N2CCOCC2)ccc1Nc1cc2c(cn1)N(C)C(=O)c1ccccc1[S+]2[O-] (stereo not shown) [Compound T83]	> 500 nM
CCOc1cc(C(=O)N2CCC(N3CCCC3)CC2)ccc1Nc1cc2c(cn1)N(C)S(=O)(=O)c1ccccc1N2C [Compound T2]	> 500 nM
CC(C)Oc1cc(C(=O)N2CC[C@@H](NCCF)C2)ccc1Nc1cc2c(cn1)N(C)C(=O)c1ccccc1N2C [Compound T50]	101 to 500 nM
CCOc1cc(C(=O)O)ccc1Nc1cc2c(cn1)N(C)S(=O)(=O)c1ccccc1N2C [Compound T1]	> 500 nM
CCOc1cc(C(=O)N2CCN(C3CCN(C)CC3)CC2)ccc1Nc1cc2c(cn1)N(C)C(=O)c1ccccc1O2 [Compound T98]	101 to 500 nM

The reported IC50 value, ERK5 (Homo sapiens, UniProt Q13164), for CCOc1cc(C(=O)N2CCCNCC2)ccc1Nc1cc2c(cn1)N(C)C(=O)c1scnc1N2C [Compound T7] reads 50 to 100 nM

The reported IC50 value, ERK5 (Homo sapiens, UniProt Q13164), for CCOc1cc(C(=O)N2CCN(C3CCN(C)CC3)CC2)ccc1Nc1cc2c(cn1)N(C)C(=O)c1ccccc1N2C [Compound T8] reads ≤ 50 nM

###

Quick reference: inhibition at 10 µM of the listed items.
system: human Th17 cells; experiment: Cytokine response by in vitro-polarized human Th17 cells stimulated with PMA/ionomycin; assay type: cell-based; settings: 10 μM compound, PMA/ionomycin 20 h, read-out: Percent inhibition of IL-17A (relative to DMSO control)

CCOc1cc(C(=O)N2CCC(N3CCN(C)CC3)CC2)ccc1Nc1cc2c(cn1)N(C)C(=O)c1occc1N2C	13.9%
CCOc1cc(C(=O)N2CCNCC2)ccc1Nc1cc2c(cn1)N(C)C(=O)c1ccccc1N2C	27.7%
CCOc1cc(C(=O)N2CCC(N3CCN(C)CC3)CC2)ccc1Nc1cc2c(cn1)N(C)C(=O)c1ccccc1N2C	37.5%
CCOc1cc(C(=O)N2CC[C@@H](N(C)C)C2)ccc1Nc1cc2c(cn1)N(C)C(=O)c1ccccc1N2C	68.3%
CCOc1cc(C(=O)NCC2CC2)ccc1Nc1cc2c(cn1)N(C)C(=O)c1ccccc1N2C	49.5%

Alright, here's another compound for you.
// inhibition at 10 µM value for CCOc1cc(C(=O)N2CCC(N3CCCC3)CC2)ccc1Nc1cc2c(cn1)N(C)C(=O)c1ccccc1N2C : 56.6%
